# study-target: T1, human calcitonin receptor (human, UniProt P30988 25-474)
# T1 construct: whole, on cells; Used as membranes prepared from the transfected cells (Assay VII); also called hCTR; hCT
# T1 sequence (looked up): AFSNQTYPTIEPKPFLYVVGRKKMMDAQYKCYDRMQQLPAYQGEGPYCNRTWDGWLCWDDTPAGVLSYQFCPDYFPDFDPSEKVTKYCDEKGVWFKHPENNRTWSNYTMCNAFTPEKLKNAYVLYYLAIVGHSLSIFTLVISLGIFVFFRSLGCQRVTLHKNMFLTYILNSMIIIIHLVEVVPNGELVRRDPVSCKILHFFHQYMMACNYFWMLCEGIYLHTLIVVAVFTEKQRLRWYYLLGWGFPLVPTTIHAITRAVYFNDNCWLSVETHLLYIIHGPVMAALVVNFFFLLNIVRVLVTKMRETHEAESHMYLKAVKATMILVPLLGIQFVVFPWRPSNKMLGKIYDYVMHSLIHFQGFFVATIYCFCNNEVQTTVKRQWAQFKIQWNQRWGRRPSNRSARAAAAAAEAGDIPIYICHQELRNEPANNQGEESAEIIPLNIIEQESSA
# protocol-text: ratio IC50 human calcitonin receptor / IC50 human amylin receptor (Assays VII and V)
value-type: Ratio hCT/hAmylin binding
No unit in the answer, please; the number alone is enough.

Field: example entries. Status: answers known.
binder: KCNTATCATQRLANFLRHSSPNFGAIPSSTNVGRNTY (C20 diacid-gGlu acylated on the alpha amino group of the N-terminal residue (Lys 1); disulfide Cys2-Cys7; C-terminal amide, Derivative of human amylin; also called compound 39) [N^α1-[(4S)-4-carboxy-4-(19-carboxynonadecanoylamino)butanoyl]-[Arg17,Pro21,Pro27,Arg34]-h-amylin]
Ratio hCT/hAmylin binding: 29
//
binder: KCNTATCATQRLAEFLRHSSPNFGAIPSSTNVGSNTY (C20 diacid-gGlu acylated on the alpha amino group of the N-terminal residue (Lys 1); disulfide Cys2-Cys7; C-terminal amide, Derivative of human amylin; also called compound 9) [N^α1-[(4S)-4-carboxy-4-(19-carboxynonadecanoylamino)butanoyl]-[Glu14,Arg17,Pro21,Pro27]-h-amylin]
Ratio hCT/hAmylin binding: 8
//
binder: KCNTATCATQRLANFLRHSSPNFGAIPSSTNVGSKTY (C20 diacid-gGlu acylated on the alpha amino group of the N-terminal residue (Lys 1); disulfide Cys2-Cys7; C-terminal amide, Derivative of human amylin; also called compound 34) [N^α1-[(4S)-4-carboxy-4-(19-carboxynonadecanoylamino)butanoyl]-[Arg17,Pro21,Pro27,Lys35]-h-amylin]
Ratio hCT/hAmylin binding: 64.4

Alright, here's another binder for you.
Which Ratio hCT/hAmylin binding reading was recorded for the binder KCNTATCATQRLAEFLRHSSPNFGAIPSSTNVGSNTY (C20 diacid-gGlu-2xOEG acylated on the alpha amino group of the N-terminal residue (Lys 1); disulfide Cys2-Cys7; C-terminal amide, Derivative of human amylin; also called compound 19) ?
36.7
